- Test system: TLR2 induced IL-6 in peripheral blood mononuclear cells (PBMCs)
- ASSAY_OVERVIEW: PBMC TLR2 Induced IL-6 Assay
- Type: cell-based, human
- CONDITION_DETAILS: Homo sapiens, PBMC, human PBMCs, lipoteichoic acid stimulated, IL-6 by ELISA; read-out: Cell EC50
VALUE_TYPE: pEC50
pEC50 here: minus log base 10 of the concentration, concentration in moles per litre.

Consider the reported pEC50 for these compounds:
CC(C)(O)[C@H](F)CNC(=O)c1cnc(-n2ccc3cc(C#N)cnc32)cc1Nc1cccc(S(N)(=O)=O)c1 [Example 416]    7.24
CC(C)(O)[C@H](F)CNC(=O)c1cnc(N2CCc3cc(C#N)cnc32)cc1NC1COC1 [Example 549]    6.38
CC(C)(O)[C@H](F)CNC(=O)c1cnc(-n2ncc3cc(C#N)cnc32)cc1NC1COC1 [Example 546]    6.59
CC(C)(O)c1cnc(Nc2cc(-n3ncc4cc(C#N)cnc43)ncc2C(=O)NC[C@@H](F)C(C)(C)O)s1 [Example 521]    6.34
CC(C)(O)[C@H](F)CNC(=O)c1cnc(-n2ncc3cc(C#N)cnc32)cc1NC1CCN(c2ccccc2)CC1 [Example 535]    6.73

(Q) Please report the measured pEC50 for CC(C)Nc1cc(-n2ncc3cc(C#N)cnc32)ncc1C(=O)NC1CCN(C(=O)C2CN(S(C)(=O)=O)C2)CC1 [Example 584]
(A) 6.68

(Q) Please report the measured pEC50 for CCn1nnnc1-c1ccc(Nc2cc(-n3ccc4cc(C#N)cnc43)ncc2C(=O)NC[C@@H](F)C(C)(C)O)cc1 [Example 433]
(A) 6.79

(Q) Please report the measured pEC50 for CC(C)Nc1cc(-n2ccc3cc(C#N)cnc32)ncc1C(=O)NCCNS(=O)(=O)N1CCOCC1 [Example 452]
(A) 6.15

(Q) Please report the measured pEC50 for CC(C)(O)[C@H](F)CNC(=O)c1cnc(-n2ncc3cc(C#N)cnc32)cc1Nc1ccc(-n2cncn2)cc1 [Example 526]
(A) 6.95
